Tested System: human glucagon receptor (human, UniProt P47871 26-477)
Sequence (P47871 26-477): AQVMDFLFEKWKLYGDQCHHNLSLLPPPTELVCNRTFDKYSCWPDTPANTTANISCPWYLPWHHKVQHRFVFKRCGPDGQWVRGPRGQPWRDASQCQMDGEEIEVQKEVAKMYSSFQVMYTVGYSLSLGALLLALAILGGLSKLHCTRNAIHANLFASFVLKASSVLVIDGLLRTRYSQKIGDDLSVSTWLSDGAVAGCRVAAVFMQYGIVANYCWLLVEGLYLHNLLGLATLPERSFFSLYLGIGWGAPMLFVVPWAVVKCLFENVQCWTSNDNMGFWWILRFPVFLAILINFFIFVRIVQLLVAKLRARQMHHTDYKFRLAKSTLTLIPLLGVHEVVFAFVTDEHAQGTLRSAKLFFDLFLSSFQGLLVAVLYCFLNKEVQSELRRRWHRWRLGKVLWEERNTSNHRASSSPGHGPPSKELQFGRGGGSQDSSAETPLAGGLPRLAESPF
Assay Notes: cell-based or functional assay
Starred links: 1 amine or outer side, 2 acyl side, 3 side chain; linkers in the order of their positions; H or OH if unused. Non-standard residues stand in square brackets, D forms with d. Groups on a side chain read outwards from the residue. No end group written: not given here. *: point of attachment. C20 diacid = O=C(O)CCCCCCCCCCCCCCCCCCC(=O)*; C18 diacid = O=C(O)CCCCCCCCCCCCCCCCC(=O)*; γGlu = O=C(O)[C@H](CCC(=O)[*:2])N[*:1]; αMeF = C[C@](N)(Cc1ccccc1)C(=O)O; AEEA = NCCOCCOCC(=O)O; Aib = CC(C)(N)C(=O)O
# class 1 = hGluc-R EC50 (pM), cAMP below 700 pM (exclusive); class 0 = hGluc-R EC50 (pM), cAMP at/above 700 pM

Would you please look over these solved cases?
[
  {
    "Binder": "H[Aib]HGS[αMeF]TSDVSK[αMeF]LDSR[Aib]AK([AEEA-AEEA-γGlu-C20 diacid])DFVESIANT-NH2 [Peptide 252]",
    "Classification": "class 0"
  },
  {
    "Binder": "H[Aib]HGS[αMeF]TSDVSK[αMeF]LDSRAAK([AEEA-AEEA-γGlu-C18 diacid])DFVQ[Aib]IANT-NH2 (not fully specified; also: Y13: αMePhe per table) [Peptide 287]",
    "Classification": "class 1"
  },
  {
    "Binder": "H[Aib]QGTFTSDVSK[αMeF]LDSRAAKDFVQWIANT-NH2 (not fully specified (residue 20)) [Peptide 343]",
    "Classification": "class 0"
  }
]

Please look at the following binder next.
Task: Hello, I'm reviewing records and need to know if hGluc-R EC50 (pM), cAMP of H[Aib]HGS[αMeF]TSDVSK[αMeF]LDSRAAK([AEEA-C18 diacid])D[αMeF]VQ[Aib]IANT-NH2 [Peptide 273] is below 700 pM. Could you check?
Output: class 1
